- TARGET SYSTEM: T1, monkey LAG-3 on cells (HEK293-cLAG-3 stable cell line) (monkey, UniProt P18627 24-525 (human entry))
- T1 construct: Full-length monkey (Chinese monkey) LAG-3 gene expressed on HEK293 cells
- T1 chain: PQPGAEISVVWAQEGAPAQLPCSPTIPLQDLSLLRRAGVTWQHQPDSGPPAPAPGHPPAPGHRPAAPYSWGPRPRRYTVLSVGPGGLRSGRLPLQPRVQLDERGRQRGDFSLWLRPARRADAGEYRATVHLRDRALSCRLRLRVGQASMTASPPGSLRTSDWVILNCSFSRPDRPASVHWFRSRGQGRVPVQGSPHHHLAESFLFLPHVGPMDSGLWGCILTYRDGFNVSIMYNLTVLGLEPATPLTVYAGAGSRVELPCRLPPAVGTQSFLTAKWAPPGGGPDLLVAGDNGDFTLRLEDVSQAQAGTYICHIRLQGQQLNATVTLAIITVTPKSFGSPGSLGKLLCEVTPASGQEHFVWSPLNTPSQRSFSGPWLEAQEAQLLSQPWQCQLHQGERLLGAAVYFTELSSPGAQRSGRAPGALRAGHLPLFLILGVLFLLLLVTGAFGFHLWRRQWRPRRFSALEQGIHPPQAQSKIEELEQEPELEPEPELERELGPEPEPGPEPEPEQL
- MEASUREMENT DESCRIPTION: FACS, HEK293-cLAG-3, antibody 0.320 nM
PROPERTY LABEL: Mean fluorescence intensity
Form rule: numeric answer, no unit written next to it.

BINDER | Mean fluorescence intensity
409B11E12 mouse-human chimeric antibody (antibody, V domains shown, also called mAb104-409B11E12) VH: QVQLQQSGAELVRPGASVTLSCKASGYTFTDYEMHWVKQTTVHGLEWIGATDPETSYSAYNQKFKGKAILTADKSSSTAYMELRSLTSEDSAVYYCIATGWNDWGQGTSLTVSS VL: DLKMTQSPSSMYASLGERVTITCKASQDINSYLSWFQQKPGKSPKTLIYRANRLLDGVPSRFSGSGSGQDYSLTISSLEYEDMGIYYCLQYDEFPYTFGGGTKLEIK | 11.6

Task: Please report the recorded Mean fluorescence intensity for 556F6B8 mouse-human chimeric antibody (antibody, V domains shown, also called mAb123-556F6B8; 556F8B8) VH: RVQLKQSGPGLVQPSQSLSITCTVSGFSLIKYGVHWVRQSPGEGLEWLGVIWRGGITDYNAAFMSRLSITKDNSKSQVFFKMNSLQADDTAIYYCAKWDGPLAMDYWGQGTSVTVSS VL: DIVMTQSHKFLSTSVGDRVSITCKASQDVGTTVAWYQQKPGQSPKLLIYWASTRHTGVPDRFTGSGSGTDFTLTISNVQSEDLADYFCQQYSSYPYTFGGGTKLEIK .
Result: 8.37
